Tested on: H. contortus
Assay Notes: Sheep experimentally infected with Haemonchus contortus, percentage clearance (Procedure No. 1)
Format: in vivo
Details: oral administration, single sheep per route, read-out: H. contortus %Clearance P.O.
Rule: inhibition in vivo at 100 mg/kg under 30% gives NO, otherwise YES.

Compound	Group
CCOc1ccc(C(=O)NN=Cc2ccc3ccccc3n2)cc1 [Compound 14]	YES
Cc1ccccc1C(=O)NN=Cc1ccc2ccccc2n1 [Compound 15]	YES

Task: Hi, just wondering whether O=C(NN=Cc1ccc2ccccc2n1)c1cccc(O)c1 [Compound 20] shows inhibition in vivo at 100 mg/kg of 30% or higher.
Output: NO

Task: Hi, just wondering whether O=C(NN=Cc1ccc2ccccc2n1)c1cccc([N+](=O)[O-])c1 [Compound 23] shows inhibition in vivo at 100 mg/kg of 30% or higher.
Output: YES

Task: Hi, just wondering whether CC(=O)NN=Cc1cnc2ccccc2c1 [Compound 43] shows inhibition in vivo at 100 mg/kg of 30% or higher.
Output: YES

Task: Hi, just wondering whether O=C(NN=Cc1ccnc2ccccc12)c1cccs1 [Compound 16] shows inhibition in vivo at 100 mg/kg of 30% or higher.
Output: NO

Task: Hi, just wondering whether COc1ccc(C(=O)NN=Cc2ccc3ccccc3n2)cc1 [Compound 22] shows inhibition in vivo at 100 mg/kg of 30% or higher.
Output: NO
